These data points were gathered from paper PMC7819943.

Task for the reader: assign each of the following sequences its reported binding signal.
- target desc: OsWRKY34 (Oryza sativa, UniProt Q0JBA9 1-250)
- Sequence (Q0JBA9 entry or part of it): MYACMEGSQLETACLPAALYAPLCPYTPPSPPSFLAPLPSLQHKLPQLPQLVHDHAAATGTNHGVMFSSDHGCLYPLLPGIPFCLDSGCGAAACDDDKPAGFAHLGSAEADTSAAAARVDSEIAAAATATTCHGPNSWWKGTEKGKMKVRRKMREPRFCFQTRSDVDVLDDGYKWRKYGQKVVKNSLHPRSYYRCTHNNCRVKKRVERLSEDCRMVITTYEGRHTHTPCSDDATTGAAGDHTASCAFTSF
- protocol text: protein-binding microarray (RPBM); PBS, 2% BSA, 51.3 ng/ul salmon testes DNA, 50 uM zinc acetate, 200 nM TF, 25 C, 1 h; high values mean tight binding
- test settings: protein: recombinant; tags: N-terminal polyhistidine and DsRed monomer fusion (pET32a); label: CyDye5-dUTP incorporated in the synthesized complementary strand; 3' TTTTT single-stranded linker to array surface; dsDNA, one strand shown
The full ranking holds about 68,000 sequences; the median of “fluorescence intensity (a.u.)” is about 9,100, and the highest 2% start at about 16,000. The sample as a whole holds a higher share of the highest values than the screen did.

Query string: Quick one: binding signal for GGCTTGATTTCTTCTTTTTTCTAATTTTCATATGGCTATTCGGAGTCACCTAGTGCAG ?
Result string: 9800 fluorescence intensity (a.u.)

Query string: // next record TTCGCCGTGTTACTGTAGCTCAAATCTCTAGCTTCCCCAACGGAGTCACCTAGTGCAG
Result string: 9240 fluorescence intensity (a.u.)

Query string: // next record TGACTTTTTCTCACATGTTTGACCATTCGTCTTATTAAAACGGAGTCACCTAGTGCAG
Result string: 12500 fluorescence intensity (a.u.)

Query string: // next record CATCGACTACCTGCCATTCTTCTACTCCAGGGTCTTCTCGCGGAGTCACCTAGTGCAG
Result string: 9510 fluorescence intensity (a.u.)

Query string: // next record CGTCTCGTGTCTTCTCGTCTCGACCCATCCATCCATCCCACGGAGTCACCTAGTGCAG
Result string: 8570 fluorescence intensity (a.u.)

Query string: // next record ATACTCTTGGTTTATCTTTGATTTTGTATATCTTTTTATTCGGAGTCACCTAGTGCAG
Result string: 9720 fluorescence intensity (a.u.)

Query string: // next record ATACTCTCATTTTTGTTTGCTCTATTCTTTGCTTTTAGAACGGAGTCACCTAGTGCAG
Result string: 10200 fluorescence intensity (a.u.)

Query string: // next record CTGTTGACTTTTTCTTATATGTTTGACCATTCGTCTTATTCGGAGTCACCTAGTGCAG
Result string: 24600 fluorescence intensity (a.u.)

Query string: // next record TAGATGACGCCGTTGATTTTTTTCTCACATATTTGACCATCGGAGTCACCTAGTGCAG
Result string: 10700 fluorescence intensity (a.u.)

Query string: // next record GCATTTCCAGGCCCACGGAAGCCACGCTTCTTCTCCAGCGCGGAGTCACCTAGTGCAG
Result string: 8060 fluorescence intensity (a.u.)

Query string: // next record AATCCCCGCACGCGTCTTTACTTCGCCTTCGTCTTTCCTCCGGAGTCACCTAGTGCAG
Result string: 9340 fluorescence intensity (a.u.)

Query string: // next record TTCTATTTTACCTCTCGTCTCTCTCCTCGCGGTCGCTTCTCGGAGTCACCTAGTGCAG
Result string: 12800 fluorescence intensity (a.u.)

Query string: // next record GGTGTGTTTGGCAAATGAGTTATGAGAGGTGTGATTGTTACGGAGTCACCTAGTGCAG
Result string: 8860 fluorescence intensity (a.u.)

Query string: // next record CCCTTTACTTGATTTTCTGCTGGTTGGTTTATCTTTTATTCGGAGTCACCTAGTGCAG
Result string: 19600 fluorescence intensity (a.u.)

Query string: // next record TTCTTCCCAGATCGTGCTTCTCCCACTCGGATCAGCCGCCCGGAGTCACCTAGTGCAG
Result string: 8110 fluorescence intensity (a.u.)

Query string: // next record ATTTTACTCTTTTGACTATATTGGTTCGGTTGAAGTTTTACGGAGTCACCTAGTGCAG
Result string: 23100 fluorescence intensity (a.u.)

Query string: // next record TGACGCCGTTGACTTTTTATCTAATGTTTGACTATTCGTCCGGAGTCACCTAGTGCAG
Result string: 43500 fluorescence intensity (a.u.)

Query string: // next record CAGTATCTTACTTCTCAGCTGCTCAATCATCAGCTGCCACCGGAGTCACCTAGTGCAG
Result string: 9310 fluorescence intensity (a.u.)

Query string: // next record AGATGACGCCGTTGACTTTTTCTTACATATTTGACCATTCCGGAGTCACCTAGTGCAG
Result string: 25400 fluorescence intensity (a.u.)

Query string: // next record ACAATTCACAAACGAACCTCTGCTGTTAGCCGCCTCTTTCCGGAGTCACCTAGTGCAG
Result string: 8190 fluorescence intensity (a.u.)

Query string: // next record TCCCGATATCATATTATAACCCTTCTAGAAATCTAATGTTCGGAGTCACCTAGTGCAG
Result string: 8160 fluorescence intensity (a.u.)

Query string: // next record ACCTAATATTTCCCGTGTTCTCTTCTACGAAAACGTATTTCGGAGTCACCTAGTGCAG
Result string: 10500 fluorescence intensity (a.u.)

Query string: // next record CTCTGCTCAGTGCTGCTCACTGCCTCACTCACACTGTCACCGGAGTCACCTAGTGCAG
Result string: 11000 fluorescence intensity (a.u.)

Query string: // next record ACCATCTCTCTCTCTCTCTCTGCATGCATATCTTCTCCTCCGGAGTCACCTAGTGCAG
Result string: 14300 fluorescence intensity (a.u.)

Query string: // next record GCCGATAGAGGCATGGGGTTTGTTCAGATTGATGTCATTTCGGAGTCACCTAGTGCAG
Result string: 9370 fluorescence intensity (a.u.)

Query string: // next record TCTGCATGATTCCTTGGTTTCTTTTTTTACACATTTACTTCGGAGTCACCTAGTGCAG
Result string: 10500 fluorescence intensity (a.u.)

Query string: // next record AAGGGTGTATTTATTGGTGCAATAGCGTTTTTGTTTGACCCGGAGTCACCTAGTGCAG
Result string: 8690 fluorescence intensity (a.u.)

Query string: // next record AGTACTCCTCCGTTCTAAATTAGATGTCGTTTTGATTTTTCGGAGTCACCTAGTGCAG
Result string: 8570 fluorescence intensity (a.u.)

Query string: // next record ATTTAGAGTTGACTTTGGTTTATTTTTCATTGAAGTTTATCGGAGTCACCTAGTGCAG
Result string: 9450 fluorescence intensity (a.u.)

Query string: // next record TACTGGTTCTACTTGATCTTATTTATCTTTTTATTCTATTCGGAGTCACCTAGTGCAG
Result string: 10100 fluorescence intensity (a.u.)

Query string: // next record CTTGCTCGTTGTAACTGTTTAATCTATTATGTTTTTTTTTCGGAGTCACCTAGTGCAG
Result string: 11000 fluorescence intensity (a.u.)

Query string: // next record CACCGTTGACTTTTTCTCACATGTTTGACCATTCGTCTTACGGAGTCACCTAGTGCAG
Result string: 48400 fluorescence intensity (a.u.)

Query string: // next record CAACCCACACACCACCACACAGATCACAACAGCAAGTTGTCGGAGTCACCTAGTGCAG
Result string: 8160 fluorescence intensity (a.u.)

Query string: // next record TCATCTCACGCTGTTGACTTTCTCTTTTTTTTTCGGGGAGCGGAGTCACCTAGTGCAG
Result string: 18000 fluorescence intensity (a.u.)

Query string: // next record GCCTACTTAAATTACATTTCCGCACCCACACCACACACACCGGAGTCACCTAGTGCAG
Result string: 11400 fluorescence intensity (a.u.)

Query string: // next record CATCTGTCTCTGGATCTCTGCATATCTCCTCTTCTGTGATCGGAGTCACCTAGTGCAG
Result string: 17200 fluorescence intensity (a.u.)

Query string: // next record GAGGAAACATCTATCCCGGTCAAAGCCTGAGCATGTACACCGGAGTCACCTAGTGCAG
Result string: 8210 fluorescence intensity (a.u.)
